System: TRPC4 (transient receptor potential cation channel C4 beta), mouse
Experiment: positive allosteric modulators of mouse TRPC4, confirmation, cell-based, second round, Fluo-4, HEK293 TRPC4beta/mu-opioid, 1 µM (AID 2554)
Settings: DAMGO EC20, Fluo-4 calcium flux, at 1 µM
Active and inactive are the calls of the source.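 The calls were made as follows: active = primary screen hit whose fluorescence ratio, in both repeats, exceeds the weak agonist control mean by 3 SD; inactive = the rest.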
# valid calls are true = active, false = inactive; nothing else

Ask | Dear colleague, could you share the recorded outcome for COc1ccc(CCN(C)CCC(=O)Nc2c(C)cc(C)cc2C)cc1OC when you have a moment?
Reply | false

Ask | Dear colleague, could you share the recorded outcome for Cc1onc(-c2ccccc2)c1C(=O)NNC(=S)NC(=O)/C=C/c1ccccc1 when you have a moment?
Reply | false

Ask | Dear colleague, could you share the recorded outcome for CN(C)C(CNC(=O)C1CCN(S(=O)(=O)c2cccc(C(F)(F)F)c2)CC1)c1ccccc1 (stereo unspecified) when you have a moment?
Reply | false

Ask | Dear colleague, could you share the recorded outcome for COc1ccc(C(CNC(=O)c2cccc(S(=O)(=O)NCc3ccccc3)c2)N(C)C)cc1 (stereo unspecified) when you have a moment?
Reply | false

Ask | Dear colleague, could you share the recorded outcome for CN(C)C(CNC(=O)Cc1cccc(C(F)(F)F)c1)c1ccccc1 (stereo unspecified) when you have a moment?
Reply | false

Ask | Dear colleague, could you share the recorded outcome for CN(C)CCCOc1cccc(Cl)c1 when you have a moment?
Reply | true

Ask | Dear colleague, could you share the recorded outcome for O=S(=O)(c1ccc(Cl)cc1)N1CCN2CCCC2C1 (stereo unspecified) when you have a moment?
Reply | false

Ask | Dear colleague, could you share the recorded outcome for Cn1c(CN2CCN(c3cccc(Cl)c3)CC2)nc2ccccc21 when you have a moment?
Reply | false

Ask | Dear colleague, could you share the recorded outcome for O=C(c1sc2ccccc2c1Cl)N(Cc1cccs1)C1CCS(=O)(=O)C1 (stereo unspecified) when you have a moment?
Reply | false

Ask | Dear colleague, could you share the recorded outcome for CCCCN(C)CCCNC(=O)CN1N=C(c2ccc(Cl)cc2)CCC1=O when you have a moment?
Reply | false

Ask | Dear colleague, could you share the recorded outcome for CC(C)(C)c1cc(Cl)ccc1OCCn1ccnc1 when you have a moment?
Reply | false

---

Molecular target: Potassium voltage-gated channel subfamily E member 1 (Homo sapiens) + Potassium voltage-gated channel subfamily KQT member 1 (Homo sapiens) (UniProt P15382+P51787)
Sequence (P51787 whole entry, looked up): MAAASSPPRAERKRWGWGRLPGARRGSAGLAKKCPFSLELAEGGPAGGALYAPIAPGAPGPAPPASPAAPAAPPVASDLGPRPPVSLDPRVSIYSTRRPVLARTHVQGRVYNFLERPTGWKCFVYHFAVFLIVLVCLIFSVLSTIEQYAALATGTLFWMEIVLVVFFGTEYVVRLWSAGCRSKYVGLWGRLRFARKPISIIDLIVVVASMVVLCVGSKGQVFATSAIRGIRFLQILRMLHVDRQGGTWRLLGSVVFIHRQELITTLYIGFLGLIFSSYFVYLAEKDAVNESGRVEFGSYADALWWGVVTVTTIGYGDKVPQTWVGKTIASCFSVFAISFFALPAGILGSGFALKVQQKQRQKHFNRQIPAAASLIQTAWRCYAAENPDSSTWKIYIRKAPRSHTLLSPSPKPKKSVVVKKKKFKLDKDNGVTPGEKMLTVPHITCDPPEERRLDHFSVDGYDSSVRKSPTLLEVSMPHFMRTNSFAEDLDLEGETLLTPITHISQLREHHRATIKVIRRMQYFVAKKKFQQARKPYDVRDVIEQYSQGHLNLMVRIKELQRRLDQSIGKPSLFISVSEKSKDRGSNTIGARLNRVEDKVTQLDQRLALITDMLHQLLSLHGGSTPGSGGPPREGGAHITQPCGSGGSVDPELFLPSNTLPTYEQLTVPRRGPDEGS
Test: KCNQ1/KCNE1 complex potentiators, confirmation, selectivity assay for KCNQ1 potentiator project, thallium flux, CHO-K1 KCNQ1/E1 cells (AID 493186)
Conditions: FluxOR thallium flux, at 10 µM
Calls of active or inactive are those of the source.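 How the source made its calls: active means mean duplicate activation above the buffer control mean plus 5 SD of those controls; inactive means the rest.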
# valid calls are active, inactive; nothing else

Ask | Dear colleague, could you share the recorded outcome for CCC1CCCCN1CCCNC(=O)CSc1nc2nc(C)c(Cc3ccccc3)c(C)n2n1 (stereo not given) when you have a moment?
Reply | inactive

Ask | Dear colleague, could you share the recorded outcome for O=C(COc1ccccc1)NC(=S)Nc1ccc(Br)cn1 when you have a moment?
Reply | active

Ask | Dear colleague, could you share the recorded outcome for S=c1[nH]nc(COc2ccccc2)n1/N=C/c1ccc(Cl)cc1Cl when you have a moment?
Reply | inactive

Ask | Dear colleague, could you share the recorded outcome for Cc1ccc(/C=N/NC(=O)c2cc(C3CC3)nc3ccccc23)o1 when you have a moment?
Reply | inactive

Ask | Dear colleague, could you share the recorded outcome for O=C(NC(=S)Nc1cccc(Cl)c1)c1cncc(Br)c1 when you have a moment?
Reply | inactive

Ask | Dear colleague, could you share the recorded outcome for O=C(CCN1Cc2ccccc2C1)c1ccc2c(c1)OCCO2 when you have a moment?
Reply | inactive

Ask | Dear colleague, could you share the recorded outcome for O=C(NC(=S)NC1CCCc2ccccc21)c1ccc(F)cc1 (stereo not given) when you have a moment?
Reply | inactive

Ask | Dear colleague, could you share the recorded outcome for CCC1(CC)Cc2ccccc2-c2[nH]c(=S)[nH]c(=O)c21 when you have a moment?
Reply | inactive

Ask | Dear colleague, could you share the recorded outcome for CC(C1CC2CCC1C2)n1c(-c2ccco2)n[nH]c1=S (stereo not given) when you have a moment?
Reply | inactive

Ask | Dear colleague, could you share the recorded outcome for COc1ccc(C2c3ccc4ccccc4c3Oc3ncn(CCN4CCOCC4)c(=N)c32)cc1OC (stereo not given) when you have a moment?
Reply | inactive

Ask | Dear colleague, could you share the recorded outcome for CCNc1nc(NCC)nc(C(=O)OCCO)n1 when you have a moment?
Reply | inactive

Ask | Dear colleague, could you share the recorded outcome for OCCNCc1cc(Br)ccc1OCc1ccccc1Cl when you have a moment?
Reply | inactive

Ask | Dear colleague, could you share the recorded outcome for COc1ccc(OC)c(NC(=S)NC(=O)c2ccc(Br)o2)c1 when you have a moment?
Reply | inactive

Ask | Dear colleague, could you share the recorded outcome for CC(Sc1cccc[n+]1[O-])c1ccccc1 (stereo not given) when you have a moment?
Reply | inactive

Ask | Dear colleague, could you share the recorded outcome for CC12CCC(C/C1=N\N=C1\NC(=O)/C(=C\c3cccc(Br)c3)S1)C2(C)C (stereo not given) when you have a moment?
Reply | inactive

Ask | Dear colleague, could you share the recorded outcome for COc1ccc(-c2nonc2NC(=O)c2oc3ccccc3c2C)cc1OC when you have a moment?
Reply | inactive

Ask | Dear colleague, could you share the recorded outcome for Cc1cccc(NC(=O)C2CCCN2S(=O)(=O)c2ccc(Cl)cc2)n1 (stereo not given) when you have a moment?
Reply | inactive

Ask | Dear colleague, could you share the recorded outcome for COc1ccc(-c2cc(-c3ccccc3)c(C#N)c(=S)[nH]2)cc1 when you have a moment?
Reply | inactive

Ask | Dear colleague, could you share the recorded outcome for CCCCOC(=O)c1ccc(NC(=S)NC(=O)c2ccco2)cc1 when you have a moment?
Reply | inactive

Ask | Dear colleague, could you share the recorded outcome for Cc1cc(/C=N/n2cnnc2)c(C)n1-c1ccc(Cl)cc1Cl when you have a moment?
Reply | inactive

Ask | Dear colleague, could you share the recorded outcome for NS(=O)(=O)c1ccc(Sc2ccc3c(c2)CCC3)nc1 when you have a moment?
Reply | inactive

Ask | Dear colleague, could you share the recorded outcome for CN1CCN(Cc2ccc(Sc3ccc(Cl)cc3)c([N+](=O)[O-])c2)CC1 when you have a moment?
Reply | inactive

Ask | Dear colleague, could you share the recorded outcome for CC1CC(=S)Nc2ccccc2N1C(=O)Nc1ccccc1 (stereo not given) when you have a moment?
Reply | inactive

Ask | Dear colleague, could you share the recorded outcome for O=c1c2cc(F)ccc2[nH]c(=S)n1Cc1ccc(F)cc1 when you have a moment?
Reply | inactive

Ask | Dear colleague, could you share the recorded outcome for O=C(CNC(=S)NC(=O)c1ccc(Br)o1)c1ccccc1 when you have a moment?
Reply | inactive

Ask | Dear colleague, could you share the recorded outcome for Oc1c(N=NC(=S)Nc2ccccc2F)c2ccccc2n1Cc1ccc(Cl)cc1 when you have a moment?
Reply | inactive

Ask | Dear colleague, could you share the recorded outcome for CC1CCc2c(sc(NC(=O)C(=O)NCc3ccco3)c2C#N)C1 (stereo not given) when you have a moment?
Reply | inactive

Ask | Dear colleague, could you share the recorded outcome for Cc1ccc(-n2ncc(C(=O)Nc3cc(Cl)cc(Cl)c3)c2C2CCNCC2)cc1C when you have a moment?
Reply | inactive

Ask | Dear colleague, could you share the recorded outcome for COc1cccc(CN2CCN(Cc3cc4ccccc4[nH]3)CC2CCO)c1 (stereo not given) when you have a moment?
Reply | inactive

Ask | Dear colleague, could you share the recorded outcome for O=C(CC1(O)C(=O)N(Cc2ccccc2)c2ccccc21)c1ccncc1 (stereo not given) when you have a moment?
Reply | inactive

Ask | Dear colleague, could you share the recorded outcome for Cc1cc(-c2cccs2)c(C#N)c(=S)[nH]1 when you have a moment?
Reply | inactive

Ask | Dear colleague, could you share the recorded outcome for O=C(O)/C=C/C(=O)c1ccc2c(c1)CCc1ccccc1-2 when you have a moment?
Reply | inactive

Ask | Dear colleague, could you share the recorded outcome for O=C1C(Nc2ccc(O)cc2)=C/C(=N/S(=O)(=O)c2cccs2)c2ccccc21 when you have a moment?
Reply | inactive

Ask | Dear colleague, could you share the recorded outcome for O=C(NNc1cc(N2CCOCC2)nc(N2CCOCC2)n1)C12CC3CC(CC(C3)C1)C2 when you have a moment?
Reply | inactive

Ask | Dear colleague, could you share the recorded outcome for COC(=O)c1sccc1NC(=O)CSc1ccccc1NS(=O)(=O)c1cc(Cl)ccc1Cl when you have a moment?
Reply | inactive

Ask | Dear colleague, could you share the recorded outcome for CCOC(=O)N1CCC(NC(=O)c2cc(C(=O)NCc3ccc(F)cc3)ccc2CO)CC1 when you have a moment?
Reply | inactive

Ask | Dear colleague, could you share the recorded outcome for Cc1ccc(C)c(-n2c3nc(=O)n(C)c(=O)c-3cc3ccccc32)c1 when you have a moment?
Reply | inactive

Ask | Dear colleague, could you share the recorded outcome for CCN1CCN(c2ccc(S(=O)(=O)N3CCCC3)cn2)CC1 when you have a moment?
Reply | inactive

Ask | Dear colleague, could you share the recorded outcome for CCCCCCOc1ccc(N2C(=O)CC(N3CCN(C(=O)c4ccco4)CC3)C2=O)cc1 (stereo not given) when you have a moment?
Reply | inactive

Ask | Dear colleague, could you share the recorded outcome for Cc1cc(C)cc(-n2c(C)cc(/C=C3\C(=N)N4N=C(CC(C)C)SC4=NC3=O)c2C)c1 when you have a moment?
Reply | inactive

Ask | Dear colleague, could you share the recorded outcome for COCC(=O)Nc1nnc(SCC(=O)N2C(C)CCCC2C)s1 (stereo not given) when you have a moment?
Reply | inactive

Ask | Dear colleague, could you share the recorded outcome for CCN(CC)C(=S)SCC(=O)Nc1nc(=O)c2ccccc2s1 when you have a moment?
Reply | inactive

Ask | Dear colleague, could you share the recorded outcome for COc1ccc(-c2nn(-c3ccccc3)cc2C(=O)NC(=S)NNC(=O)c2ccncc2)cc1 when you have a moment?
Reply | inactive

Ask | Dear colleague, could you share the recorded outcome for COc1ccc(-c2csc(NC(=S)NC(=O)c3cccs3)n2)cc1Br when you have a moment?
Reply | inactive

Ask | Dear colleague, could you share the recorded outcome for CCOC(=O)C(Sc1nnc(-c2ccncc2)o1)C(C)=O (stereo not given) when you have a moment?
Reply | inactive
